experiment: Toxicity liver stage against HepG2, at 10uM; format: cell-based; design: test concentration 10 uM, cell line HepG2-A16-CD81EGFP; details: human, HepG2-A16-CD81EGFP cells; read-out: INHIBITION
measured endpoint: cytotoxicity at 10 µM (%)
Number only, in %; omit the unit.

Reference set, count: 3
CCc1ccc(CN2CCc3[nH]nc(C(=O)N4CCNC(=O)C4)c3C2)o1 = 17.5
Cc1noc(C2CCC3(CCN(C(=O)c4ccn(C)n4)CC3)O2)n1 (stereo not drawn) = 7.57
COc1ccc(C(C(=O)O)N2CCC(O)(c3cccnc3)CC2)cc1Cl (stereo not drawn) = 4.57

For Cc1cccc(CN2CCc3nnc(CN(C)C)n3CC2)n1 , what is its reported cytotoxicity at 10 µM?
-1.54

For Cn1nnc2c1CCN(Cc1ccncc1)C2COCc1ccccc1 (stereo not drawn) , what is its reported cytotoxicity at 10 µM?
-134

For Cc1cccc(-n2ncc3c2CCCC3NCc2cnn(C)c2C)c1C (stereo not drawn) , what is its reported cytotoxicity at 10 µM?
13.8

For CC(C)CNC(=O)[C@H]1CCS(=O)(=O)[C@@H]2CN(Cc3cccnc3)C[C@H]12 , what is its reported cytotoxicity at 10 µM?
-2.36

For O=C(NCCNc1ncccn1)N1CCCC1c1ccc(F)cc1 (stereo not drawn) , what is its reported cytotoxicity at 10 µM?
0.932

For Cc1cc2nc(-c3ccccc3)cc(NCC3CCCOC3)n2n1 (stereo not drawn) , what is its reported cytotoxicity at 10 µM?
-3.54

For O=C(Nc1ccc(N2CCCC2)nc1)N1CCc2ccccc2C1 , what is its reported cytotoxicity at 10 µM?
-10.2

For CC(C)(CNc1cn[nH]c(=O)c1Cl)c1ccc2c(c1)OCO2 , what is its reported cytotoxicity at 10 µM?
6.67

For Cc1noc(C)c1CN1CCc2ncnc(-c3ccc(F)cc3)c2CC1 , what is its reported cytotoxicity at 10 µM?
-100

For CCC(C)NC(=O)c1cncc(Br)c1 (stereo not drawn) , what is its reported cytotoxicity at 10 µM?
1.24

For CN1CCC(NCC(O)c2cccc(OCc3ccccc3)c2)CC1 (stereo not drawn) , what is its reported cytotoxicity at 10 µM?
-11.7

For Cc1ncccc1Oc1cncc(C2CCCN2Cc2cncn2C)n1 (stereo not drawn) , what is its reported cytotoxicity at 10 µM?
-32.8

For N#Cc1cccnc1N1CCCC(CO)(Cc2cccc(Cl)c2)C1 (stereo not drawn) , what is its reported cytotoxicity at 10 µM?
6.29

For CC(NC(=O)c1ccnc(C2CC2)n1)C1(N2CCOCC2)CCCC1 (stereo not drawn) , what is its reported cytotoxicity at 10 µM?
4.21

For c1cnc(N2CCC3(CC2)CN(CC2CC2)c2ccccc23)nc1 , what is its reported cytotoxicity at 10 µM?
19.9

###

Catalogue of cytotoxicity at 10 µM readings, one per entry.
assay: Toxicity liver stage against HepG2, at 10uM; format: cell-based; parameters: test concentration 10 uM, cell line HepG2-A16-CD81EGFP; conditions: human, HepG2-A16-CD81EGFP cells; read-out: INHIBITION
Number only, in %; omit the unit.

Reference set, count: 5
COCCNc1c(-c2ccc(Cl)cc2)c(=O)c1=O = -1.99
CCC(CNC(=O)c1c(C)nn(C)c1OC)Oc1ccccc1 (centres undefined) = -4.89
COC(=O)CNC(=O)C(C)Oc1ccccc1C(F)(F)F (centres undefined) = 6.08
CCn1cnnc1CNC(=O)N1CCN(CC(C)C)CC1 = 9.18
O=C(COCC1CC1)N1CCCC(n2cccn2)C1 (centres undefined) = 4.6

Let us examine a further case.
For CNC(=O)c1cc2c(nc1N(C)C)CCN(c1ncc(F)cn1)CC2 , what is its reported cytotoxicity at 10 µM?
-131

###

Catalogue of cytotoxicity at 10 µM readings, one per entry.
test: Toxicity liver stage against HepG2, at 10uM; assay type: cell-based; set-up: test concentration 10 uM, cell line HepG2-A16-CD81EGFP; conditions: human, HepG2-A16-CD81EGFP cells; read-out: INHIBITION
Number only, in %; omit the unit.

CC(O)CN(Cc1cccc(C(=O)N(C)C)c1)c1ccccc1 (stereo not drawn) = 2.45
CCc1cn[nH]c1C1CCN(c2cc(C)c3ccc(OC)cc3n2)CC1 = 18.7
N#Cc1cccc(C(=O)N2CCCC(O)(CO)CC2)c1 (stereo not drawn) = 1.29
Cc1nc(C2CCCN(C(=O)CN3CCCNC3=O)C2)sc1C (stereo not drawn) = 10.4

For c1ccc(COC[C@@H]2CCC[C@@]23CNCCO3)nc1 , what is its reported cytotoxicity at 10 µM?
-105

For CCN1CCN(C(=O)c2cnc(Cc3c(Cl)cccc3Cl)nc2O)CC1 , what is its reported cytotoxicity at 10 µM?
2.57

For c1ccc(OCCNC2CCN(c3ncccn3)CC2)cc1 , what is its reported cytotoxicity at 10 µM?
1.85

###

experiment: Toxicity liver stage against HepG2, at 10uM; format: cell-based; design: test concentration 10 uM, cell line HepG2-A16-CD81EGFP; settings: human, HepG2-A16-CD81EGFP cells; read-out: INHIBITION
Catalogue of cytotoxicity at 10 µM readings, one per entry.
Number only, in %; omit the unit.

Reference set, count: 5
Fc1ccc(C2(CNCC(F)F)CCOC2)cc1 (centres undefined) = -152
COc1ccc(NCC(=O)NCC(=O)N2CCCC2)c(C(F)(F)F)c1 = 6.78
CN(CC(=O)N1CC(C)(C)[C@](O)(C2CC2)C1)Cc1cccnc1 = -52
CN(C)C(=O)CN1CCN(C(=O)C2CSc3ccccc3O2)CC1 (centres undefined) = 1.84
Cc1cc(C2CCC2)nc(N2CCC3(CCCN(C)C3=O)C2)n1 (centres undefined) = -6.62

For Cc1cc(N2CCOC(C(F)(F)F)C2)nc(-c2ccccc2)n1 (centres undefined) , what is its reported cytotoxicity at 10 µM?
-1.23

For COc1cccc2c1OCC(C(=O)N1CCC(N3CCSCC3)CC1)C2 (centres undefined) , what is its reported cytotoxicity at 10 µM?
2.24

For Cc1ccc(-c2nc(CC(=O)N3CCN(c4cnccn4)CC3)cs2)o1 , what is its reported cytotoxicity at 10 µM?
-13

For Fc1ccc(CNCCn2cccn2)c(Cl)c1 , what is its reported cytotoxicity at 10 µM?
-1.26

For COC(C)(CNS(=O)(=O)c1cnn(C)c1)c1ccccc1F (centres undefined) , what is its reported cytotoxicity at 10 µM?
-4.8

For Cc1cccc(NC(=O)C2CSc3ncc(C)c(=O)n3C2)n1 (centres undefined) , what is its reported cytotoxicity at 10 µM?
0.0115

For CN1Cc2cc(F)ccc2N(CC(C)(C)O)CCC1=O , what is its reported cytotoxicity at 10 µM?
-2.02

For NC(=O)c1cc2c(nc1N1C[C@H]3OC(=O)N(C4CCCC4)[C@H]3C1)CCC2 , what is its reported cytotoxicity at 10 µM?
2.24

For COCCCn1ccc(NC2CCSCC2)n1 , what is its reported cytotoxicity at 10 µM?
3.04

For O=C(NC1CCCN(c2ccccn2)C1)C1(c2ccccc2F)CC1 (centres undefined) , what is its reported cytotoxicity at 10 µM?
7.79

###

Catalogue of cytotoxicity at 10 µM readings, one per entry.
assay: Toxicity liver stage against HepG2, at 10uM; type: cell-based; design: test concentration 10 uM, cell line HepG2-A16-CD81EGFP; settings: human, HepG2-A16-CD81EGFP cells; read-out: INHIBITION
Number only, in %; omit the unit.

Reference set, count: 3
CCN(Cc1ccc2c(c1)OCO2)S(=O)(=O)N(C)C = -2.97
O=C(c1ccnc(-n2cnnc2)c1)N1CCCC2(CCNC2)C1 (stereo not given) = -19.1
CC(Oc1ccccc1C(F)(F)F)C(=O)NCC(=O)N1CCCC1 (stereo not given) = 5.12

For O=C1CCN(C(=O)CCc2cc(Br)cs2)CCN1 , what is its reported cytotoxicity at 10 µM?
-2.1

For COCC(O)CN1CCC(NC(=O)c2ccccc2Cl)CC1 (stereo not given) , what is its reported cytotoxicity at 10 µM?
-4.87

For COc1ccc(C2CN(c3nc(C)cc(C)n3)CCN2C(C)=O)cc1 (stereo not given) , what is its reported cytotoxicity at 10 µM?
2.06

For CCc1n[nH]c(C2CN(C(=O)c3cc4c(s3)CCCC4)CCO2)n1 (stereo not given) , what is its reported cytotoxicity at 10 µM?
-10.1

###

Catalogue of cytotoxicity at 10 µM readings, one per entry.
test: Toxicity liver stage against HepG2, at 10uM; assay type: cell-based; set-up: test concentration 10 uM, cell line HepG2-A16-CD81EGFP; settings: human, HepG2-A16-CD81EGFP cells; read-out: INHIBITION
Number only, in %; omit the unit.

CCOc1ccc(C(=O)N2Cc3cnc(CC(C)C)nc3C2)o1 = 7.18
CC(=O)N(C)CC(=O)NC(C)c1ccc(OCCC(C)C)cc1 (stereo not drawn) = 8.59
CC(C)c1nccn1C1CCCN(C(=O)c2nccnc2N)C1 (stereo not drawn) = 0.0264

For CSc1ncccc1C(=O)N(CCO)Cc1ccccc1 , what is its reported cytotoxicity at 10 µM?
2.22

For CCN(CC)C(=O)Cn1nc(C(C)C)c2cnn(C(C)(C)C)c2c1=O , what is its reported cytotoxicity at 10 µM?
0.703

For NCC1CN(C(=O)c2cccc(-n3cccn3)c2)CCO1 (stereo not drawn) , what is its reported cytotoxicity at 10 µM?
-1.56
